Some compounds, each annotated with its measured EE (%) incorporation efficiency.
# protocol: Incorporation efficiency (EE) in liposomes prepared by hydration of a lipid and drugs film
# Type: physicochemical
# assay.setup: lipid formulation DMPC

Consider the following illustrative entries.
CCCCCCCCCCCCCCNC(=O)c1cnccn1 [Compound A14, N-tetradecyl pyrazinamide] ... 95.2%
CCCCCCCCOC(=O)C=Cc1ccccc1 [CO, octyl cinnamate] ... 92.2%
CCCCCCCCCCCCOC(=O)c1cnccn1 [Compound C12, dodecyl pyrazinoate] ... 94.7%
CCCCCCCCCCOC(=O)c1ccccc1 [BD, decyl benzoate] ... 94.1%

Alright, here's another compound for you.
I'd like to know its EE (%) incorporation efficiency. The compound in question is CCCCCCCCCCCCCCCCNC(=O)c1cnccn1 [Compound A16, hexadecyl pyrazinamide]
97.0%

----------
# System: Mycobacterium tuberculosis H37Ra
# protocol: Determination of the Minimum Inhibitory Concentration (MIC) by successive dilutions
# Format: cell-based
# assay.setup: Mycobacterium tuberculosis, H37RA, 504 h, pH 5.5, M. tuberculosis H37Ra, broth, pH 5.5, about 21 days at 37° C.; read-out: MIC
Catalogue of MIC readings, one per entry.

CCCCCCCCCCCCOC(=O)c1cnccn1 [Compound C12, dodecyl pyrazinoate] ... 20 to 40 µg/mL
NC(=O)c1cnccn1 [PZA, pyrazinamide, reference compound] ... 100 µg/mL
CCCCCCCCCCCCCCOC(=O)c1cnccn1 [Compound C14, tetradecyl pyrazinoate] ... 10 to 20 µg/mL
O=C(O)c1cnccn1 [POA, pyrazinoic acid, reference compound] ... 100 to 200 µg/mL

Would you mind telling me what MIC value was observed for CCCCCCCCCCCCCCCCOC(=O)c1cnccn1 [Compound C16, hexadecyl pyrazinoate] ?
20 to 40 µg/mL

----------
# protocol: in vitro
# Type: in vitro ADME
# assay.setup: rat, tissue homogenate, pH 7.4, Half-life (min) Vesicular form (DMPC)
In this section, each of the compounds is paired with its reported half-life.
Please provide the amount together with its unit, number first.

CCCCCCCCCCCCCCCCOC(=O)c1cnccn1 [Compound C16, hexadecyl pyrazinoate] ... 12.8 h
CCCCCCCCCCCCCCOC(=O)c1cnccn1 [Compound C14, tetradecyl pyrazinoate] ... 2.82 h

What value of measured half-life is listed for CCCCCCCCCCCCOC(=O)c1cnccn1 [Compound C12, dodecyl pyrazinoate] ?
0.9 h

----------
# protocol: in vitro
# Assay type: in vitro ADME
# assay.setup: human, plasma, pH 7.4, Half-life (min) Vesicular form (DMPC)
quantity.name: half-life (h)
Give the value, in units of h, as a plain number.

Requested read-out: half-life. Entry: CCCCCCCCCCCCCCOC(=O)c1cnccn1 [Compound C14, tetradecyl pyrazinoate]
2.63

Entry CCCCCCCCCCCCCCCCOC(=O)c1cnccn1 [Compound C16, hexadecyl pyrazinoate] please
3.57

Try the compound CCCCCCCCCCCCOC(=O)c1cnccn1 [Compound C12, dodecyl pyrazinoate]
1.3

----------
Entries and their measured half-life follow.
# protocol: in vitro
# Format: in vitro ADME
# assay.setup: rat, tissue homogenate, pH 7.4, Half-life (min) Free form

CCCCCCCCCCCCCCOC(=O)c1cnccn1 [Compound C14, tetradecyl pyrazinoate] ... 4 min

Given the molecule CCCCCCCCCCCCCCCCOC(=O)c1cnccn1 [Compound C16, hexadecyl pyrazinoate] , what is its reported half-life?
21 min

Could you do the same for CCCCCCCCCCCCOC(=O)c1cnccn1 [Compound C12, dodecyl pyrazinoate] , please?
2 min

----------
# protocol: Incorporation efficiency (EE) in liposomes prepared by hydration of a lipid and drugs film
# Format: physicochemical
# assay.setup: lipid formulation DPPC
# Lookup of reported EE (%) incorporation efficiency keyed by entry
Answer as a quantity: numeral, then unit.

CCCCCCCCCCOC(=O)c1ccccc1 [BD, decyl benzoate] ... 93.4%
CCCCCCCCCCCCCCNC(=O)c1cnccn1 [Compound A14, N-tetradecyl pyrazinamide] ... 96.4%
CCCCCCCCCCCCOC(=O)c1cnccn1 [Compound C12, dodecyl pyrazinoate] ... 93.1%

Here's the next entry for you.
I would be grateful if you could share the reported EE (%) incorporation efficiency for CCCCCCCCOC(=O)C=Cc1ccccc1 [CO, octyl cinnamate] .
94.5%
